Biological target: StCA1
Construct: recombinant, obtained in-house; beta-class CA
Experiment: stopped-flow CO2 hydration
Type: biochemical, Salmonella enterica subsp. enterica serovar Typhimurium
Settings: 20 mM TRIS pH 8.4, 20 mM Na2SO4, CO2 1.7-17 mM; 6 h preincubation at room temperature
measured_quantity: Ki (nM)
The response must be a number in nM with no trailing unit.

Before answering, review these 2 worked examples.
[[record]]
smiles_input = "N#Cc1ccc(CSC(N)=Nc2ccc(S(N)(=O)=O)cc2)cc1"
unit_string = "nM"
readout_number = 55.7

[[record]]
smiles_input = "NC(=Nc1ccc(S(N)(=O)=O)cc1)SCc1ccccc1"
unit_string = "nM"
readout_number = 52.2


Query: So what's the measured Ki for this one? CCCCCCCSC(N)=Nc1ccc(S(N)(=O)=O)cc1
Reply: 71.3

---

// reported log10(Ki) for each item listed
Molecular target: StCA2 (Salmonella enterica)
Construct: gene mig-5; recombinant, obtained in-house; beta-class CA
Sequence (O30898 41-246): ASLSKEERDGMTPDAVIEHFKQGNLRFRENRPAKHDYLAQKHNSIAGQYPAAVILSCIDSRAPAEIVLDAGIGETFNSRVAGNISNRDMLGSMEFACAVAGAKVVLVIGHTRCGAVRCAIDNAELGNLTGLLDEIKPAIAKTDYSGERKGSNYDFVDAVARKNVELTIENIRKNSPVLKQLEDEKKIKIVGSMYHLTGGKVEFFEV
Set-up: stopped-flow CO2 hydration assay, phenol red 557 nm, TRIS pH 8.4, recombinant beta-CA, 6 h preincubation
Conditions: inhibitor
Hi team, quick reminder: these entries are log10 of Ki (nM).

Before answering, review these 6 worked examples.
[[record]]
smiles_input = "NC(=Nc1ccc(S(N)(=O)=O)cc1)SCc1ccc([N+](=O)[O-])cc1"
target_entity = "StCA2 (Salmonella enterica)"
measured_quantity = "log10(Ki)"
readout_number = 3.84

[[record]]
smiles_input = "C=CCSC(N)=Nc1ccc(S(N)(=O)=O)cc1"
target_entity = "StCA2 (Salmonella enterica)"
measured_quantity = "log10(Ki)"
readout_number = 3.70

[[record]]
smiles_input = "NC(=Nc1ccc(S(N)(=O)=O)cc1)SCc1ccc(Br)cc1"
target_entity = "StCA2 (Salmonella enterica)"
measured_quantity = "log10(Ki)"
readout_number = 3.99

[[record]]
smiles_input = "C#CCSC(N)=Nc1ccc(S(N)(=O)=O)cc1"
target_entity = "StCA2 (Salmonella enterica)"
measured_quantity = "log10(Ki)"
readout_number = 3.85

[[record]]
smiles_input = "N#Cc1ccc(CSC(N)=Nc2ccc(S(N)(=O)=O)cc2)cc1"
target_entity = "StCA2 (Salmonella enterica)"
measured_quantity = "log10(Ki)"
readout_number = 3.72

[[record]]
smiles_input = "CCCCCCCSC(N)=Nc1ccc(S(N)(=O)=O)cc1"
target_entity = "StCA2 (Salmonella enterica)"
measured_quantity = "log10(Ki)"
readout_number = 2.98


Query: So what's the measured log10(Ki) for this one? NC(=Nc1ccc(S(N)(=O)=O)cc1)SCc1ccc(C(F)(F)F)cc1
Reply: 3.77
